# method: Krafft point of aqueous dispersion of aldonamide
# Format: physicochemical
# condition.label: 1.0% in water by weight
# Method: The temperature at and above which surfactants begin to form micelles instead of precipitates is referred to as the Krafft point (Tk) and at this temperature the solubility of a surfactant becomes equal to its CMC (numerical value at which micelles are formed). The Krafft point was measured by preparing 650 ml of a 0.1% or 1.0% dispersion of aldonamide in water by weight. If the surfactant was soluble at room temperature, the solution was slowly cooled to 0° C. […] (less than zero). […]
property.name: Krafft Point (1.0%) (°C)

1. CCCCCCCCCCCCNC(=O)[C@H](O)[C@@H](O)[C@H](O[C@@H]1O[C@H](CO)[C@H](O)[C@H](O)[C@H]1O)[C@H](O)CO [OO, C12 D-Lactobionamide]    38
2. CCCCCCCCCCCCCCNC(=O)[C@H](O)[C@@H](O)[C@H](O[C@H]1O[C@H](CO)[C@@H](O)[C@H](O)[C@H]1O)[C@H](O)CO [RR, C14 D-Maltobionamide]    46

----------
# method: Krafft point of aqueous dispersion of aldonamide
# Format: physicochemical
# condition.label: 0.1% in water by weight
property.name: Krafft Point (0.1%)

Field: example entries. Status: answers known.
1. CCCCCCCCCCCCNC(=O)[C@H](O)[C@@H](O)[C@@H](O)[C@H](O)CO [J, C12 D-Galactonamide]    > 100 °C
2. CCCCCCCC/C=C\CCCCCCCCNCCCNC(=O)[C@H](O)[C@@H](O)[C@H](O)[C@H](O)CO [CC, oleylaminopropyl D-gluconamide]    < 0 °C
3. CCCCCCCCCCCCNC(=O)[C@@H](O)[C@H](O)[C@@H](O)[C@@H](O)CO [I, C12 L-Gluconamide]    91 °C

Could you now consider this next compound?
Which value of Krafft Point (0.1%) has been reported for CCCCCCCCCCCCNC(=O)[C@@H](O)[C@H](O)[C@H](O)[C@@H](O)CO [K, C12 L-Galactonamide] in the records? > 100 °C

----------
# method: Ross-Miles foam height
# Type: physicochemical
# Design: key: X: low water solubility. foam height cannot be measured
# condition.label: after 10 minutes; Examples 82-83
property.name: Foam Height Final (symbol)

Field: example entries. Status: answers known.
1) CCCCCCCCCCCNC(=O)[C@H](O)[C@@H](O)[C@H](O)[C@H](O)CO [G, C11 D-Gluconamide]    X
2) CCCCCCCCCCCCNC(=O)[C@@H](O)[C@H](O)[C@@H](O)[C@@H](O)CO [I, C12 L-Gluconamide]    X
3) CCCCCCCCCCCCNC(=O)[C@H](O)[C@H](O)[C@@H](O)[C@H](O)[C@H](O)CO [HH, C12 D-Glucoheptonamide]    X
4) CCCCCCCCCCCCNC(=O)[C@H](O)[C@@H](O)[C@H](O)[C@H](O)CO [H, Dodecyl D-Gluconamide]    X

Could you now consider this next compound?
Which value of Foam Height Final (symbol) has been reported for CCCCCCCCCCCCNC(=O)C(O)C(O)C(O)C(O)C(O)C(O)CO [FF, C12 D-Glucooctonamide] in the records? X

----------
# method: Effectiveness in reducing surface tension (surface pressure at the CMC)
# Format: physicochemical
# condition.label: 60° C., estimated by linear extrapolation
property.name: surface pressure at the CMC (cmc) (dyn/cm)

1. CCCCCCCCCCCCOCCOCCOCCOCCOCCOCCOCCOCCO    36.3
2. CCCCCCCCCCCCOCCOCCOCCOCCOCCOCCOCCO    36.8
3. CCCCCCCCCCCCOCCOCCOCCOCCOCCO    40.7
4. CCCCCCCCCCCCOCCOCCOCCO    41.4
5. CCCCCCCCCCCCOCCOCCOCCOCCO    40.7

----------
# method: Krafft point of aqueous dispersion of aldonamide
# Type: physicochemical
# condition.label: 0.1% in water by weight
property.name: Krafft Point (0.1%)

Field: example entries. Status: answers known.
1. CCCCCCCCCCCCNC(=O)[C@H](O)[C@H](O)[C@@H](O)[C@H](O)[C@H](O)CO [HH, C12 D-Glucoheptonamide]    91 °C
2. CCCCCCCNC(=O)[C@H](O)[C@@H](O)[C@H](O)[C@H](O)CO [C, C7 D-Gluconamide]    < 0 °C
3. CCCCCCCCCCCCNC(=O)[C@H](O)[C@H](O)[C@@H](O)[C@@H](O)[C@H](O)CO [GG, C12 D-Glycero-L-Mannoheptonamide]    > 100 °C
4. CCCCCCCCCCCCOCCOCCOC(=O)CNC(=O)[C@H](O)[C@@H](O)[C@H](O)[C@H](O)CO    < 0 °C

Could you now consider this next molecule?
Which value of Krafft Point (0.1%) has been reported for CCCCCCCCCCCCNC(=O)[C@H](O)[C@H](O)[C@@H](O)[C@@H](O)CO [L, C12 L-Mannonamide] in the records? > 100 °C

----------
# method: Area per molecule at the interface
# Type: physicochemical
# condition.label: 60° C., estimated by linear extrapolation
property.name: area per molecule (am) (Å^2)

1. CCCCCCCCCCCCOCCOCCOCCOCCOCCO    52.3

I = CCCCCCCCCCCCOCCOCCOCCO
II = CCCCCCCCCCCCOCCOCCOCCOCCOCCOCCOCCOCCO
Out of I and II , name the one with the higher area per molecule (am). # answer = label of selected item II

----------
# method: Krafft point of aqueous dispersion of aldonamide
# Format: physicochemical
# condition.label: 1.0% in water by weight
property.name: Krafft Point (1.0%)

Field: example entries. Status: answers known.
1) CCCCCCCCCCCCOCCCNC(=O)[C@H](O)[C@@H](O)[C@H](O[C@H]1O[C@H](CO)[C@@H](O)[C@H](O)[C@H]1O)[C@H](O)CO [XX, dodecyloxypropyl D-maltobionamide]    < 0 °C
2) CCCCCCCCCCCCOC(=O)CCNC(=O)[C@H](O)[C@@H](O)[C@H](O[C@@H]1O[C@H](CO)[C@H](O)[C@H](O)[C@H]1O)[C@H](O)CO [BBB, N-D-lactobionyl dodecyl β-alaninate]    < 0 °C

Could you now consider this next compound?
Which value of Krafft Point (1.0%) has been reported for CCCCCCCCCCCCOCCCNC(=O)[C@H](O)[C@@H](O)[C@H](O[C@@H]1O[C@H](CO)[C@H](O)[C@H](O)[C@H]1O)[C@H](O)CO [WW, dodecyloxypropyl D-lactobionamide] in the records? < 0 °C

----------
surface excess concentration at surface saturation (Γmax) values by entry
# method: Effectiveness of adsorption at the interface (surface excess concentration at surface saturation)
# Format: physicochemical
# condition.label: 60° C., estimated by linear extrapolation

Field: example entries. Status: answers known.
1. CCCCCCCCCCCCOCCOCCOCCOCCOCCO    3.16 × 10^-10 mole/cm^2
2. CCCCCCCCCCCCOCCOCCOCCOCCOCCOCCOCCOCCO    2.40 × 10^-10 mole/cm^2
3. CCCCCCCCCCCCOCCOCCOCCOCCOCCOCCOCCO    2.71 × 10^-10 mole/cm^2

Could you now consider this next compound?
Which value of surface excess concentration at surface saturation (Γmax) has been reported for CCCCCCCCCCCCOCCOCCOCCOCCO in the records? 3.01 × 10^-10 mole/cm^2

----------
# method: Krafft point of aqueous dispersion of aldonamide
# Assay type: physicochemical
# condition.label: 0.1% in water by weight
property.name: Krafft Point (0.1%) (°C)

1. CCCCCCCCCCCCOC(=O)CNC(=O)[C@H](O)[C@@H](O)[C@H](O)[C@H](O)CO [W, N-D-gluconyl dodecyl glycinate]    63
2. CCCCCCCCCCCCNC(=O)C(O)C(O)C(O)C(O)C(O)C(O)CO [FF, C12 D-Glucooctonamide]    86
3. CCCCCCCCCCCNC(=O)[C@H](O)[C@@H](O)[C@H](O)[C@H](O)CO [G, C11 D-Gluconamide]    87
4. CCCCCCCCCNC(=O)[C@H](O)[C@@H](O)[C@H](O)[C@H](O)CO [E, C9 D-Gluconamide]    53
5. CCCCCCCCCCCC(=O)OCCNC(=O)[C@H](O)[C@@H](O)[C@H](O)[C@H](O)CO [X]    63
6. CCCCCCCCCCCCNC(=O)[C@H](O)[C@H](O)[C@H](O)CO [A, dodecyl D-ribonamide]    54
7. CCCCCCCCCCCCOCCCNC(=O)[C@H](O)[C@H](O)[C@@H](O)[C@H](O)[C@H](O)CO [KK, C12 Oxypropyl D-Glucoheptonamide]    73
